Let's look at some compounds and their measured activation at 1 µM.
Experimental target: glucocerebrosidase (Gcase) (Homo sapiens, UniProt P04062)
Construct: micellar solution containing 10 nM GCase and 100 nM saposin C
Sequence (P04062 40-536): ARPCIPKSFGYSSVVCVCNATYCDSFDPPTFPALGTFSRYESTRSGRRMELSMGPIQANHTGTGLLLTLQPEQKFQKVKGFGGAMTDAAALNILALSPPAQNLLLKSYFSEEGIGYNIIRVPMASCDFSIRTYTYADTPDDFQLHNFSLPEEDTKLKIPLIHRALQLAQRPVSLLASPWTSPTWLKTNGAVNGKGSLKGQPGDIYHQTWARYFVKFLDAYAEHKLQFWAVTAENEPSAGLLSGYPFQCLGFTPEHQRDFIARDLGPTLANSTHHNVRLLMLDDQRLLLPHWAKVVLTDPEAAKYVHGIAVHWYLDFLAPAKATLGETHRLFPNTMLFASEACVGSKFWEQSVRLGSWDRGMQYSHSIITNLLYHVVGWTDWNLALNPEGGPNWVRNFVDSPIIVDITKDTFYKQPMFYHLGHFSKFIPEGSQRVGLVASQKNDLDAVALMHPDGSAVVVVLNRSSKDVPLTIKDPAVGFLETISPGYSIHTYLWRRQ
Experiment notes: Glucocerebrosidase (Gcase) activation assay, 4-methylumbelliferyl-beta-D-glucopyranoside substrate, fluorescence readout
Format: biochemical
Experimental conditions: test compound at 1.0 μM; read-out: Percent Gcase Activation, 1 μM Test Compound
Measured metric: activation at 1 µM

[[record]]
compound = "Cc1cc(C)n2ccc(C(=O)Nc3ccc(OCCCCN)cc3)c2n1 [III-19]"
experimental_target = "glucocerebrosidase (Gcase) (Homo sapiens, UniProt P04062)"
measured = "< 30%"

[[record]]
compound = "CCCO[C@H]1CC[C@H](CNC(=O)c2ccn3c(C)cc(C)nc23)CC1 [III-240]"
experimental_target = "glucocerebrosidase (Gcase) (Homo sapiens, UniProt P04062)"
measured = "> 60%"

[[record]]
compound = "Cc1cc(C)n2ccc(C(=O)Nc3ccc4nc(C)sc4c3)c2n1 [III-88]"
experimental_target = "glucocerebrosidase (Gcase) (Homo sapiens, UniProt P04062)"
measured = "> 60%"

[[record]]
compound = "CCCCCOC1CCCC(NC(=O)c2ccn3c(C)cc(C)nc23)C1 (stereo not shown) [III-234]"
experimental_target = "glucocerebrosidase (Gcase) (Homo sapiens, UniProt P04062)"
measured = "> 60%"

[[record]]
compound = "O=C(Nc1ccc(-c2cocn2)cc1)c1ccn2c(C(F)F)cc(C(F)F)nc12 [III-23]"
experimental_target = "glucocerebrosidase (Gcase) (Homo sapiens, UniProt P04062)"
measured = "> 60%"

[[record]]
compound = "Cc1cc(C)n2ccc(C(=O)Nc3ccc(-c4ccncc4)cc3)c2n1 [III-11]"
experimental_target = "glucocerebrosidase (Gcase) (Homo sapiens, UniProt P04062)"
measured = "30 to 60%"

[[record]]
compound = "CCCCCOC1CCC(NC(=O)c2ccn3c(C)cc(C)nc23)CC1 (stereo not shown) [III-22]"
experimental_target = "glucocerebrosidase (Gcase) (Homo sapiens, UniProt P04062)"
measured = "> 60%"

[[record]]
compound = "CCCCO[C@H]1CC[C@H](NC(=O)c2ccn3c(COC)cc(C)nc23)CC1 [III-33]"
experimental_target = "glucocerebrosidase (Gcase) (Homo sapiens, UniProt P04062)"
measured = "> 60%"

[[record]]
compound = "CO[C@H]1CC[C@@H](C(C)(C)NC(=O)c2ccn3c(C)cc(C)nc23)CC1 [III-238]"
experimental_target = "glucocerebrosidase (Gcase) (Homo sapiens, UniProt P04062)"
measured = "> 60%"

[[record]]
compound = "C#Cc1ccc(NC(=O)c2ccn3c(C)cc(C)nc23)cc1 [III-2]"
experimental_target = "glucocerebrosidase (Gcase) (Homo sapiens, UniProt P04062)"
measured = "> 60%"

[[record]]
compound = "C#CCCCCO[C@H]1CC[C@H](NC(=O)c2ccn3c(C)cc(C)nc23)CC1 [III-208]"
experimental_target = "glucocerebrosidase (Gcase) (Homo sapiens, UniProt P04062)"
measured = "> 60%"

[[record]]
compound = "COCc1cc(C(F)F)n2ccc(C(=O)NC3(C)CCOc4cc(F)c(F)cc43)c2n1 (stereo not shown) [III-58]"
experimental_target = "glucocerebrosidase (Gcase) (Homo sapiens, UniProt P04062)"
measured = "> 60%"

[[record]]
compound = "Cc1cc(C)n2ccc(C(=O)N[C@H]3CC[C@H](Oc4cccs4)CC3)c2n1 [III-190]"
experimental_target = "glucocerebrosidase (Gcase) (Homo sapiens, UniProt P04062)"
measured = "> 60%"

[[record]]
compound = "COCCOc1ccc2c(c1)C(NC(=O)c1ccn3c(C)cc(C)nc13)CC2 (stereo not shown) [III-103]"
experimental_target = "glucocerebrosidase (Gcase) (Homo sapiens, UniProt P04062)"
measured = "> 60%"

[[record]]
compound = "Cc1cc(C)n2ccc(C(=O)Nc3ccc4c(c3)C(n3oc(C)cc3=O)CC4)c2n1 (stereo not shown) [III-97]"
experimental_target = "glucocerebrosidase (Gcase) (Homo sapiens, UniProt P04062)"
measured = "30 to 60%"

[[record]]
compound = "Cc1cc(C(F)(F)F)nc2c(C(=O)Nc3ccc(-c4cocn4)cc3)ccn12 [III-252]"
experimental_target = "glucocerebrosidase (Gcase) (Homo sapiens, UniProt P04062)"
measured = "> 60%"

[[record]]
compound = "CCOC1(C)CCC(NC(=O)c2ccn3c(C)cc(C)nc23)CC1 (stereo not shown) [III-232]"
experimental_target = "glucocerebrosidase (Gcase) (Homo sapiens, UniProt P04062)"
measured = "< 30%"

[[record]]
compound = "Cc1cc(C)n2ccc(C(=O)N[C@H]3CC[C@H](OC4CCC4)CC3)c2n1 [III-101]"
experimental_target = "glucocerebrosidase (Gcase) (Homo sapiens, UniProt P04062)"
measured = "> 60%"

[[record]]
compound = "CCCCO[C@H]1CC[C@H](NC(=O)c2ccn3c(C)cc(COC)nc23)CC1 [III-45]"
experimental_target = "glucocerebrosidase (Gcase) (Homo sapiens, UniProt P04062)"
measured = "> 60%"


These measurements were taken from patent US11351173B2.
